B1: ANKRD44 (parent)
chain: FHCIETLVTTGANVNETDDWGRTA

# Variants of: B1
# method summary: protein stability index of a GFP-peptide fusion (GPS, HEK-293T) (PSI 1-6); higher = more stable;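 note: lentivirally expressed fusions sorted by FACS into six bins by GFP to DsRed ratio, PSI derived from sequencing read proportions per bin multiplied by bin number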
# details: c terminus: a fixed tail appended

var: D18I
protein stability index: 1.95
--
var: I4R
protein stability index: 2.61
--
var: C3M
protein stability index: 2.31
--
var: T23H
protein stability index: 2.42
--
var: N13P
protein stability index: 2.41
--
var: G11A
protein stability index: 1.79
--
var: T17F
protein stability index: 2
--
var: T6S
protein stability index: 2.71
--
var: E16I
protein stability index: 1.52
--
var: V8I
protein stability index: 1.8
--
var: H2D
protein stability index: 4.54
